B1: CLK3 (parent)
chain: FGEDYYGPSRSRHRRRSRERGPYR

Variants of: B1
Assay: protein stability index of a GFP-peptide fusion (GPS, HEK-293T) (PSI 1-6); higher = more stable;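 further: lentivirally expressed fusions sorted by FACS into six bins by GFP to DsRed ratio, PSI derived from sequencing read proportions per bin multiplied by bin number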
Settings: c terminus: a fixed tail appended
Label 1 when protein stability index >= 3; otherwise 0.

{"BIOSEQUENCE": "FGEDYYGPSRSRHRRRSQERGPYR", "CLASS NAME": 0}
{"BIOSEQUENCE": "FGEDYYGPSRSRHRRRARERGPYR", "CLASS NAME": 0}
{"BIOSEQUENCE": "FGEDYYGPSRSRHRRRSRETGPYR", "CLASS NAME": 0}

Hi, just wondering whether FGEDYYGPSRSRHRRRSRERTPYR shows protein stability index of 3 or higher.
0

Determine whether measured protein stability index meets or exceeds 3 for FGEDYYGPSYSRHRRRSRERGPYR
0

Answer whether protein stability index of FGEDYYGPSRSRHFRRSRERGPYR is greater than or equal to 3.
0
